assay: NCI Yeast Anticancer Drug Screen. Data for the bub3 strain (AID 167); conditions: S. cerevisiae bub3 mutant strain, at 50.0 µM, stronger effect = higher value
The panel holds about 79,000 compounds, 15% with a hit somewhere; the sample as a whole holds those more often.
Metric: growth inhibition (%)
Numbers only, in %.

Worked cases, growth inhibition given:
[
  {
    "Compound": "CC1=NN(C(=O)c2cccnc2)C(=O)C1N=Nc1ccc(S(=O)(=O)N=C(N)N)cc1 (stereo not drawn)",
    "Unit Abbrev": "%",
    "growth inhibition": 0
  },
  {
    "Compound": "CN(C)c1nc(=O)c2c(ccc3ccccc32)o1",
    "Unit Abbrev": "%",
    "growth inhibition": 0.55
  }
]

Q: Endpoint output: growth inhibition of C1CCSCCCCCSCCCCCSCCCCCSCC1 . Value?
A: 4.35

Just for reference, PubChem BioAssay (NCI) is where these values come from.
